Known shrunken log2 fold change of a selection of sequences
system: Escherichia coli TOP10; experiment: shrunken log2 fold change of peptide-encoding DNA abundance (4.5 h post-induction vs induction); higher = less antimicrobial activity (less host growth inhibition); details: time post-induction: 4.5 h; library: site-saturation at positions 5, 18, 19, 20;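 note: peptides expressed intracellularly from a pBAD plasmid library in pooled LB shake-flask culture, induced with 0.3% L-arabinose, DNA abundance read by NGS, three biological replicates, DESeq2 with apeglm shrinkage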
# output: bare number, no unit

Here's what some known entries look like.
>  <inputSequence>
RRIRNRPPRLPRPRPRPMIYPRP

>  <shrunken log2 fold change>
-0.265

$$$$
>  <inputSequence>
RRIRARPPRLPRPRPRPGSLPRP

>  <shrunken log2 fold change>
0.056

$$$$
>  <inputSequence>
RRIRHRPPRLPRPRPRPDPKPRP

>  <shrunken log2 fold change>
0.0039

$$$$
>  <inputSequence>
RRIRRRPPRLPRPRPRPDMFPRP

>  <shrunken log2 fold change>
0.0219

$$$$
>  <inputSequence>
RRIRERPPRLPRPRPRPTRSPRP

>  <shrunken log2 fold change>
-0.196

$$$$

IN: # input sequence: `RRIRQRPPRLPRPRPRPNERPRP` ; wanted: its shrunken log2 fold change
OUT: -0.0297

IN: # input sequence: `RRIRQRPPRLPRPRPRPFVVPRP` ; wanted: its shrunken log2 fold change
OUT: 0.0366

IN: # input sequence: `RRIRNRPPRLPRPRPRPGQYPRP` ; wanted: its shrunken log2 fold change
OUT: 0.0262

IN: # input sequence: `RRIRQRPPRLPRPRPRPSQDPRP` ; wanted: its shrunken log2 fold change
OUT: -0.0378
